- tested-system: TSLP, Q969D9
- assay: Kd (SPR)
experimental-endpoint: Kd (nM)
Answers are plain numbers, in nM.

# binder, value-units, Kd
measured = [
    ("unnamed (protein) chain 1: QMQLVESGGGVVQPGRSLRLSCAASGFTFRTYGMHWVRQAPGKGLEWVAVIWYDGSNKHYADSVKGRFTITRDNSKNTLNLQMNSLRAEDTAVYYCARAPRYDYYYEAFDVWGQGTMVTVSS chain 2: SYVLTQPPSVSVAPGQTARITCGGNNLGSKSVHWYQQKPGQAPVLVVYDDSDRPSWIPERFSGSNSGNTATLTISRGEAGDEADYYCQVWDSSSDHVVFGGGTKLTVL", "nM", 138),
    ("unnamed (protein) chain 1: QMQLVESGGGVVQPGRSLRLSCAASGFTFSTFAMHWVRQAPGKGLEWVAVIWYDGSNKHYADSVKGRFTITRDNSKNTLNLQMNSLRAEDTAVYYCARSPRYDEYWEAFDVWGQGTMVTVSS chain 2: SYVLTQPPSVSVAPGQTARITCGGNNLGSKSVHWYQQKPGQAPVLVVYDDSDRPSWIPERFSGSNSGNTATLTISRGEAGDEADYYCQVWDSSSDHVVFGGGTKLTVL", "nM", 31.6),
    ("unnamed (protein) chain 1: QMQLVESGGGVVQPGRSLRLSCAASGFTFRTYGMHWVRQAPGKGLEWVAVIWYDGSNKHYADSVKGRFTITRDNSKNTLNLQMNSLRAEDTAVYYCARAPRYDERWEAFDVWGQGTMVTVSS chain 2: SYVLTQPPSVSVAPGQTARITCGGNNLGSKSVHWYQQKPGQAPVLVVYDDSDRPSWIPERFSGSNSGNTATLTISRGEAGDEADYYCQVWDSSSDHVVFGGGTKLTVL", "nM", 494),
    ("unnamed (protein) chain 1: QMQLVESGGGVVQPGRSLRLSCAASGFTFSTFAMHWVRQAPGKGLEWVAVIWYDGSNKHYADSVKGRFTITRDNSKNTLNLQMNSLRAEDTAVYYCARAPRYDEDWEAFDVWGQGTMVTVSS chain 2: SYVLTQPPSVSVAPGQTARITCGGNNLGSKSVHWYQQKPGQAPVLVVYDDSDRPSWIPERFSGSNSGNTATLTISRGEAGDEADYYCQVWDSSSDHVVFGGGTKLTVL", "nM", 894),
]

Kd measured on unnamed (protein) chain 1: QMQLVESGGGVVQPGRSLRLSCAASGFTFSTYAMHWVRQAPGKGLEWVAVIWYDGSNKHYADSVKGRFTITRDNSKNTLNLQMNSLRAEDTAVYYCARSPRYDYYYEAFDVWGQGTMVTVSS chain 2: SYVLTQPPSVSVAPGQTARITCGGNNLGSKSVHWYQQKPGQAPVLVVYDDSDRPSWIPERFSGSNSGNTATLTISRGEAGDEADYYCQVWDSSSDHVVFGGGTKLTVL = 524
